Let's look at some compounds and their measured inhibition at 10 µM.
Target: human MAGL (His-hMAGL) (Homo sapiens)
Construct: made in house; host or cells: Escherichia coli BL21(DE3)
Experiment: Measurement of MAGL inhibitory activity by mass spectrometry
Type: biochemical
Settings: MAGL inhibitory rate, test compound 10 μM, His-hMAGL, substrate 2-arachidonylglycerol, RapidFire-mass spectrometry
Method: Thereafter, to each well was added 150 μM 2-arachidonylglycerol (Tocris Bioscience) by 5 μL, and the mixture was incubated at room temperature for 10 min. […] The amount of arachidonic acid in the obtained enzyme reaction mixture was calculated by measuring by RapidFire-mass spectrometry and correcting by the amount of arachidonic acid-d8. […] The peak area integration was analyzed using RapidFire integrator software version 3.6 (Agilent Technologies, Inc.). […]

compound: O=C1CC(N2CCN(c3ncccn3)CC2)CN1c1ccc2c(c1)CCN2c1ccnc(C(F)(F)F)c1 (centres unmarked)
target.of.assay: human MAGL (His-hMAGL) (Homo sapiens)
inhibition at 10 µM (%): 97
--
compound: O=C(c1nccs1)N1CCN(C2CC(=O)N(c3cc(-c4ccccc4)ccc3F)C2)CC1 (centres unmarked)
target.of.assay: human MAGL (His-hMAGL) (Homo sapiens)
inhibition at 10 µM (%): 96
--
compound: Cc1cccc(-c2ccc(N3CC(N4CCN(C(=O)c5nccs5)CC4)CC3=O)cc2)n1 (centres unmarked)
target.of.assay: human MAGL (His-hMAGL) (Homo sapiens)
inhibition at 10 µM (%): 96
--
compound: O=C(c1nccs1)N1CCN(C2CC(=O)N(c3cccc(-c4c(F)cc(F)cc4F)c3)C2)CC1 (centres unmarked)
target.of.assay: human MAGL (His-hMAGL) (Homo sapiens)
inhibition at 10 µM (%): 100
--
compound: O=C1CC(N2CCN(c3ncccn3)CC2)CN1c1cccc(-c2ccccc2Cl)c1 (centres unmarked)
target.of.assay: human MAGL (His-hMAGL) (Homo sapiens)
inhibition at 10 µM (%): 101
--
compound: NC(=O)Cc1cccc(-c2cccc(N3CC(N4CCN(C(=O)c5nccs5)CC4)CC3=O)c2)c1 (centres unmarked)
target.of.assay: human MAGL (His-hMAGL) (Homo sapiens)
inhibition at 10 µM (%): 102
--
compound: CC(C)Oc1ccccc1-c1cccc(N2CC(N3CCN(C(=O)c4nccs4)CC3)CC2=O)c1 (centres unmarked)
target.of.assay: human MAGL (His-hMAGL) (Homo sapiens)
inhibition at 10 µM (%): 103
--
compound: O=C(c1nccs1)N1CCN(C2CC(=O)N(c3cccc(-c4ccc(C(F)(F)F)cc4Cl)c3)C2)CC1 (centres unmarked)
target.of.assay: human MAGL (His-hMAGL) (Homo sapiens)
inhibition at 10 µM (%): 96

====

Target: human MAGL (His-hMAGL) (Homo sapiens, UniProt Q99685)
Construct: made in house; host or cells: Escherichia coli BL21(DE3)
Sequence (Q99685 whole entry): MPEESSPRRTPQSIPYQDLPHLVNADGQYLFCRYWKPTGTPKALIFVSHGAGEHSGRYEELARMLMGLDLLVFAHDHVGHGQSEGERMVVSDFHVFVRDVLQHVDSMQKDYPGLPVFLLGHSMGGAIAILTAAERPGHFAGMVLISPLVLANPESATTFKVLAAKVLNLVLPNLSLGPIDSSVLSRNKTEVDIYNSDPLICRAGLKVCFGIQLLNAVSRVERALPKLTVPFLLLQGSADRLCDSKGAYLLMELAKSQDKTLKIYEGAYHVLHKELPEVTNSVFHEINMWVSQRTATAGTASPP
Assay: Measurement of MAGL inhibitory activity by absorbance
Type: biochemical
Conditions: 10 μM test compound; substrate p-nitrophenyl acetate, absorbance at 405 nm
inhibition at 10 µM of 90% or higher: Fulfilled. Under 90%: Not fulfilled.

compound: O=C(N1CCCC1)N1CCN(C2CC(=O)N(c3ccc(Oc4ccccc4)cc3)C2)CC1 (centres unmarked)
target.of.assay: human MAGL (His-hMAGL) (Homo sapiens, UniProt Q99685)
category: Not fulfilled
--
compound: O=C(c1nccs1)N1CCN(C2CC(=O)N(c3cnc4c(ccn4-c4ccc(F)cc4)c3)C2)CC1 (centres unmarked)
target.of.assay: human MAGL (His-hMAGL) (Homo sapiens, UniProt Q99685)
category: Fulfilled
--
compound: O=C(c1nccs1)N1CCN(C2CC(=O)N(c3ccc4c(cnn4-c4ccc(F)cn4)c3)C2)CC1 (centres unmarked)
target.of.assay: human MAGL (His-hMAGL) (Homo sapiens, UniProt Q99685)
category: Fulfilled
--
compound: O=C(c1nccs1)N1CCN(C2CC(=O)N(c3ccccc3OCc3ccccc3)C2)CC1 (centres unmarked)
target.of.assay: human MAGL (His-hMAGL) (Homo sapiens, UniProt Q99685)
category: Fulfilled
--
compound: COc1ccc(Oc2ccc(N3CC(N4CCN(C(=O)c5nccs5)CC4)CC3=O)cc2)cc1 (centres unmarked)
target.of.assay: human MAGL (His-hMAGL) (Homo sapiens, UniProt Q99685)
category: Fulfilled
--
compound: O=C(c1cscn1)N1CCN(C2CC(=O)N(c3ccc(Oc4ccccc4)cc3)C2)CC1 (centres unmarked)
target.of.assay: human MAGL (His-hMAGL) (Homo sapiens, UniProt Q99685)
category: Fulfilled

====

Molecular target: human MAGL (His-hMAGL) (Homo sapiens)
Construct: made in house; host or cells: Escherichia coli BL21(DE3)
Assay: Measurement of MAGL inhibitory activity by mass spectrometry
Assay type: biochemical
Details: MAGL inhibitory rate, test compound 10 μM, His-hMAGL, substrate 2-arachidonylglycerol, RapidFire-mass spectrometry
Let's look at some compounds and their measured inhibition at 10 µM.

compound: CS(=O)(=O)Nc1ccccc1-c1cccc(N2CC(N3CCN(C(=O)c4nccs4)CC3)CC2=O)c1 (stereo not shown)
reading.unit: %
inhibition at 10 µM: 98
--
compound: CC(C)(C)CC(=O)N1CCc2cc(N3C[C@H](N4CCN(C(=O)c5cscn5)CC4)CC3=O)ccc21
reading.unit: %
inhibition at 10 µM: 100
--
compound: O=C(c1nccs1)N1CCN(C2CC(=O)N(c3ccc4c(c3)CCN4)C2)CC1 (stereo not shown)
reading.unit: %
inhibition at 10 µM: 81
--
compound: Cc1ncccc1-c1cc(N2CC(N3CCN(c4ncccn4)CC3)CC2=O)ccc1F (stereo not shown)
reading.unit: %
inhibition at 10 µM: 96
--
compound: O=C(c1nccs1)N1CCN([C@@H]2CC(=O)N(c3ccc4c(ccn4-c4ccc(C(F)(F)F)nn4)c3)C2)CC1
reading.unit: %
inhibition at 10 µM: 98
--
compound: C[C@H]1CN(C2CC(=O)N(c3ccc4c(ccn4-c4ccc(F)cc4)c3)C2)CCN1C(=O)c1nccs1 (stereo partly shown)
reading.unit: %
inhibition at 10 µM: 96
--
compound: Cc1ccc(-c2ccccc2)cc1N1CC(N2CCN(C(=O)c3nccs3)CC2)CC1=O (stereo not shown)
reading.unit: %
inhibition at 10 µM: 99
--
compound: O=C1CC(N2CCN(c3ncccn3)CC2)CN1c1cccc(I)c1 (stereo not shown)
reading.unit: %
inhibition at 10 µM: 95
--
compound: O=C(c1nccs1)N1CCN(C2CC(=O)N(c3ccc4c(c3)CCN4C(=O)Cc3ccccc3)C2)CC1 (stereo not shown)
reading.unit: %
inhibition at 10 µM: 99
--
compound: Cc1ncccc1-c1cc(F)cc(N2CC(N3CCN(c4ncccn4)CC3)CC2=O)c1 (stereo not shown)
reading.unit: %
inhibition at 10 µM: 98
--
compound: Cc1ccccc1-c1cccc(N2CC(N3CCN(C(=O)c4cscn4)CC3)CC2=O)c1 (stereo not shown)
reading.unit: %
inhibition at 10 µM: 103
--
compound: O=C(c1nccs1)N1CCN(C2CC(=O)N(c3ccc(-c4ccccc4F)cc3)C2)CC1 (stereo not shown)
reading.unit: %
inhibition at 10 µM: 98
--
compound: O=C(c1nccs1)N1CCN(C2CC(=O)N(c3cccc(-c4ccc(F)cc4F)c3)C2)CC1 (stereo not shown)
reading.unit: %
inhibition at 10 µM: 102
--
compound: O=C(c1nccs1)N1CCN(C2CC(=O)N(c3ccc4c(c3)CCN4C3CC3)C2)CC1 (stereo not shown)
reading.unit: %
inhibition at 10 µM: 95
--
compound: O=C(c1cscn1)N1CCN(C2CC(=O)N(c3cccc(-c4ccccc4Cl)c3)C2)CC1 (stereo not shown)
reading.unit: %
inhibition at 10 µM: 99
--
compound: O=C(c1nccs1)N1CCN(C2CC(=O)N(c3cccc(-c4coc5ccccc45)c3)C2)CC1 (stereo not shown)
reading.unit: %
inhibition at 10 µM: 102

====

Biological target: human MAGL (His-hMAGL) (Homo sapiens)
Construct: made in house; host or cells: Escherichia coli BL21(DE3)
Experiment: Measurement of MAGL inhibitory activity by mass spectrometry
Type: biochemical
Details: MAGL inhibitory rate, test compound 10 μM, His-hMAGL, substrate 2-arachidonylglycerol, RapidFire-mass spectrometry

compound: O=C(c1nccs1)N1CCN(C2CC(=O)N(c3ccc(-c4cccs4)cc3)C2)CC1 (centres unmarked)
target.of.assay: human MAGL (His-hMAGL) (Homo sapiens)
inhibition at 10 µM (%): 99

compound: N#Cc1ccc(-c2ccc(N3CC(N4CCN(C(=O)c5nccs5)CC4)CC3=O)cc2)cc1 (centres unmarked)
target.of.assay: human MAGL (His-hMAGL) (Homo sapiens)
inhibition at 10 µM (%): 91

compound: O=C(c1nccs1)N1CCN(C2CC(=O)N(c3cccc(-c4cccc5ccccc45)c3)C2)CC1 (centres unmarked)
target.of.assay: human MAGL (His-hMAGL) (Homo sapiens)
inhibition at 10 µM (%): 103

compound: Cc1cn2c(-c3cccc(N4CC(N5CCN(C(=O)c6nccs6)CC5)CC4=O)c3)cccc2n1 (centres unmarked)
target.of.assay: human MAGL (His-hMAGL) (Homo sapiens)
inhibition at 10 µM (%): 97

compound: N#Cc1ccc(-c2cccc(N3CC(N4CCN(C(=O)c5nccs5)CC4)CC3=O)c2)cc1 (centres unmarked)
target.of.assay: human MAGL (His-hMAGL) (Homo sapiens)
inhibition at 10 µM (%): 98

compound: O=C(c1nccs1)N1CCN(C2CC(=O)N(c3ccc(-c4ccccc4Cl)cc3)C2)CC1 (centres unmarked)
target.of.assay: human MAGL (His-hMAGL) (Homo sapiens)
inhibition at 10 µM (%): 99

compound: Cc1cc(-c2cccc(N3CC(N4CCN(C(=O)c5nccs5)CC4)CC3=O)c2)ccn1 (centres unmarked)
target.of.assay: human MAGL (His-hMAGL) (Homo sapiens)
inhibition at 10 µM (%): 101

compound: O=C(c1nccs1)N1CCN(C2CC(=O)N(c3cccc(-c4ccc(F)cc4Cl)c3)C2)CC1 (centres unmarked)
target.of.assay: human MAGL (His-hMAGL) (Homo sapiens)
inhibition at 10 µM (%): 103
